Hey, just so you know, these numbers are from paper PMC10268213.

TESTED_ON: SARS-CoV-2 receptor-binding domain (RBD) (SARS-CoV-2, UniProt P0DTC2)
MEASUREMENT_DESCRIPTION: SPR
PARAMETER: log10 of Kd (log10 of the value in nM)
On a log10 scale: recorded Kd, unit nM.

These solved cases illustrate the format of a correct answer.
Nb-C4-225 nanobody (VHH) VHH: EVQLQESGGGLVQPGGSLRLSCAASGFTFSSYAMGWYRQAPGKEREWVCAISGSGGSTYYADSVKGRFTCSRDNSKNTLYLQMNSLKPEDTAVYYCARGSFYYTYGGSVGFDAFDYWGQGTQVTVSS | 2.16
Nb-C2-136 nanobody (VHH) VHH: EVQLQESGGGLVQPGGSLRLSCAASGFTFSSYAMGWYRQAPGKEREWVCAISGSGGSTYYADSVKGRFTCSRDNSKNTLYLQMNSLKPEDTAVYYCARYGGPYDPTDSTYAFDYWGQGTQVTVSS | 2.58
Nb-C4-240 nanobody (VHH) VHH: EVQLQESGGGLVQPGGSLRLSCAASGFTFSSYAMGWYRQAPGKEREWVCAISGSGGSTYYADSVKGRFTCSRDNSKNTLYLQMNSLKPEDTAVYYCARVVSYYDQTGFVYWQSYDYWGQGTQVTVSS | 3.03
Nb-C4-255 nanobody (VHH) VHH: EVQLQESGGGLVQPGGSLRLSCAASGFTFSSYAMGWYRQAPGKEREWVCAISGSGGSTYYADSVKGRFTCSRDNSKNTLYLQMNSLKPEDTAVYYCARQAWYYSPYGGPEFEAFDYWGQGTQVTVSS | 3.47

# input for lookup
log10 of Kd in this record for LM18 nanobody (VHH) VHH: EVQLQESGGGLVQPGGSLRLSCAASGFTFSSYALGWYRQAPGKEREWVCAISGSGGSTYYADSVKGRFTCSRDNSKNTLYLQMNSLKPEDTAVYYCARVYQFYGARDYGYPYDFDYWGQGTQVTVSS : 2.59
